Consider the following compounds and their measured GI50 readings.
- Tested on: NCI-H460
- EXPERIMENT_SUMMARY: NCI tumour cell line growth inhibition, 48 h
Activity calls are given as the source filed them. Cut-off read from the data, not from the text of the source: active = GI50 up to about 1.1 µM and inactive = higher.
VALUE_TYPE: GI50

O=C(/C=C/c1ccccc1)N1CCCCC1 :: > 100 µM (inactive)
COC(=N)C1(C#N)NC(c2ccsc2)C(C#N)(C#N)NC1c1ccsc1 (configuration not stated) :: > 100 µM (inactive)
NC(CCCCCCCCCCP(=O)(O)O)C(=O)O (configuration not stated) :: > 100 µM (inactive)
C#CCn1c(=O)ccn(/C(=C\C(=O)OCC)C(=O)OCC)c1=O :: 2.63 µM (inactive)
COc1ccc(C(=O)NCCC2=CCCCC2)cc1 :: > 100 µM (inactive)
Cc1cc2c(cc1Cl)SC(NNCCO)=NS2(=O)=O :: > 100 µM (inactive)
S=c1cc(-c2ccc3c(c2)OCO3)s[nH]1 :: > 100 µM (inactive)
CCN1CCC(O)(c2ccc(C)cc2)C(C(=O)c2ccc(C)cc2)C1 (configuration not stated) :: > 52.6 µM (inactive)
C[N+](C)=C/C=C(\Cl)c1ccc2ccccc2c1 :: 23.3 µM (inactive)
N#CC(C#N)/N=N/c1ccc(-c2nc3ccccc3[nH]2)cc1 :: 94.6 µM (inactive)
CC(=O)CCC(=O)CC(O)(C(F)(F)F)C(F)(F)F :: 20.7 µM (inactive)
CN(C)CCNC(=O)c1cccc2ccc(-c3ccc(O)cc3)nc12 :: 0.548 µM (active)

---

- Test system: ACHN
- EXPERIMENT_SUMMARY: NCI tumour cell line growth inhibition, 48 h
Active and inactive are the calls of the source. Cut-off read from the data, not from the text of the source: active = GI50 up to about 1.1 µM and inactive = higher.
VALUE_TYPE: GI50

O=C(Nc1cnc(O)nc1O)Oc1ccccc1 :: > 100 µM (inactive)
C=C1C(O)C23CCC4C(C(=O)O)(C(=O)O)CC(OC5OC(CO)C(O)C(OC(=O)CCc6ccccc6)C5NC(=O)CC(C)C)CC4(C)C2CCC1(O)C3 (stereo unspecified) :: > 100 µM (inactive)
OCc1ccc2c(c1)CC1(C2)Cc2cc3c(cc2C1)CCC3 :: 5.31 µM (inactive)
Cc1cc(Cl)ccc1NC(=O)CC/C(CC(=O)C(C)C)=N\NC(=O)C[n+]1ccccc1 :: > 100 µM (inactive)
Nc1nc(N)c(-c2ccccc2)c(C(=O)Nc2ccccc2)n1 :: > 100 µM (inactive)
CCN1C(Cl)=NS(=O)(=O)c2ccccc21 :: 16.5 µM (inactive)

---

- System: A549
- EXPERIMENT_SUMMARY: NCI tumour cell line growth inhibition, 48 h
Active and inactive are the calls of the source. Cut-off read from the data, not from the text of the source: active = GI50 up to about 1.1 µM and inactive = higher.
Consider the following compounds and their measured GI50 readings.
VALUE_TYPE: GI50

O=C1OC(c2ccccc2)=N/C1=C\c1ccc(Oc2ccc(Cl)c(Cl)c2)cc1 :: 43.1 µM (inactive)
CN1c2ccccc2S(=O)(=O)n2c(CCc3ccccc3)nnc21 :: > 100 µM (inactive)
C=C1C2CCC3C4(C)CCCC(C)(C(=O)O)C4CCC3(C2)C1OC(=O)/C(C)=C/C (stereo not given) :: 35.9 µM (inactive)
CN(C)c1nc(N(C)C)nc(N(C)C)n1 [ALTRETAMINE] :: > 147 µM (inactive)
CC(=O)OCC1OC(Nn2c(=O)[nH]c3ccccc3c2=O)C(OC(C)=O)C(OC(C)=O)C1OC(C)=O (stereo not given) :: > 100 µM (inactive)
COC(=O)c1ccc(C)cc1CC1Cc2ccc(C)cc2C1=O (stereo not given) :: 11 µM (inactive)
Nc1ncnc2oc(C3OC(COC(=O)c4ccccc4)C(OC(=O)c4ccccc4)C3OC(=O)c3ccccc3)nc12 (stereo not given) :: > 100 µM (inactive)
CC1CC(C)C(=O)C(C(=O)CC2CC(=O)NC2=O)C1 (stereo not given) :: > 100 µM (inactive)
O=C(NCCCN(CCCCN(CCCNC(=O)C(F)(F)F)Cc1ccccc1)Cc1ccccc1)C(F)(F)F :: 24.2 µM (inactive)
COCc1cc2c(cc1/C=C/[N+](=O)[O-])OCO2 :: 17.1 µM (inactive)
